# measurement.target: α4β1 integrin (Homo sapiens, UniProt P05556+P13612)
# Construct: endogenous in cells; host or cells: Ramos cells
# Sequence (P13612 34-1032): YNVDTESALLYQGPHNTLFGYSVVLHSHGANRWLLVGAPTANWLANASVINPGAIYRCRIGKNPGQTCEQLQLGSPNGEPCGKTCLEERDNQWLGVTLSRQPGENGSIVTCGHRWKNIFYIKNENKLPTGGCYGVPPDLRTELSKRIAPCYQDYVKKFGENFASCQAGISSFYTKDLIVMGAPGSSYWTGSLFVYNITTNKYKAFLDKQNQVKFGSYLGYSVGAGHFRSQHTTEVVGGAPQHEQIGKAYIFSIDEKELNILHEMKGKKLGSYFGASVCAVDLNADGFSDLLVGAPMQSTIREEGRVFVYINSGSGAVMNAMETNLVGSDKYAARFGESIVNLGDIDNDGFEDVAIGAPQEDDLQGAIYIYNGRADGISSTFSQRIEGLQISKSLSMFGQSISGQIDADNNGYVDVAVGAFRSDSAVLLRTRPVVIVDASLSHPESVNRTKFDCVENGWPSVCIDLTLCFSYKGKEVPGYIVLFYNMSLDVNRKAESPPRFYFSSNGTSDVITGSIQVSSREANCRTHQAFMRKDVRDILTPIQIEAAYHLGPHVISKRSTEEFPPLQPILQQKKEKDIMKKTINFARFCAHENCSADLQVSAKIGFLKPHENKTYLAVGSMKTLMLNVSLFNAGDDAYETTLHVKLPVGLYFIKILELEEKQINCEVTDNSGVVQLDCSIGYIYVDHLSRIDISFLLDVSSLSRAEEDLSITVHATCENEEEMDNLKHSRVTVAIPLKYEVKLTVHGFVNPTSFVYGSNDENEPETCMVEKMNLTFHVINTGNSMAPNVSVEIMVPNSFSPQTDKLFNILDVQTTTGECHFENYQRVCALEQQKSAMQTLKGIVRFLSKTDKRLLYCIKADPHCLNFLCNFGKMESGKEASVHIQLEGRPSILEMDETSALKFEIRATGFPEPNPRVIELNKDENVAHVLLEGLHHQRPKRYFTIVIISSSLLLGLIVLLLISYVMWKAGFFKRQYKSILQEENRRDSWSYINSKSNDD
# Sequence (P05556 21-798): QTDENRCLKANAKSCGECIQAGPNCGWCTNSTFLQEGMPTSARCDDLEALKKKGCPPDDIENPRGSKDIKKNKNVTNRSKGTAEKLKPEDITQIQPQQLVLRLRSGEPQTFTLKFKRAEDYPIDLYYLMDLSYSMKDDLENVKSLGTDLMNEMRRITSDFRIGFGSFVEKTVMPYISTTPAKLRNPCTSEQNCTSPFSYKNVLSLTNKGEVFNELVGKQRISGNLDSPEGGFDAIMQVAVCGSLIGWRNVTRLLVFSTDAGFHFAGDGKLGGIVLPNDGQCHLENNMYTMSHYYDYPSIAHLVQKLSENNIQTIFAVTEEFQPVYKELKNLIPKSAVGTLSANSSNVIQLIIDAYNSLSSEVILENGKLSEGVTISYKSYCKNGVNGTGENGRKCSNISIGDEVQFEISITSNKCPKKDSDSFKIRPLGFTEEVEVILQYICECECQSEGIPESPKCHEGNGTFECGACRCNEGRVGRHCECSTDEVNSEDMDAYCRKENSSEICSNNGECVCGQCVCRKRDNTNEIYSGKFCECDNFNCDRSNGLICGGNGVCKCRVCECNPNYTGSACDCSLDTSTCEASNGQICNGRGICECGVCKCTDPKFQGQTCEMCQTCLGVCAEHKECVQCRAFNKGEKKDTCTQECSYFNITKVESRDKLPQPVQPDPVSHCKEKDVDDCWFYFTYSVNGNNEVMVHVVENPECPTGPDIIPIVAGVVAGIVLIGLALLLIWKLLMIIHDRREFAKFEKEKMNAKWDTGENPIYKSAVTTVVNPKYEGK
# protocol.summary: Adhesion of calcein-labeled Ramos cells to CS1 (fibronectin) peptide conjugated ovalbumin
# Type: cell-based
# test.conditions: Table 7; Ramos cell adhesion to CS1 conjugated ovalbumin; dose required to give 50% inhibition
readout.type: IC50 (nM)

1. CCc1ccc([C@H](CC(=O)O)NC(=O)Nc2c(O)c3c(n(Cc4ccccc4Cl)c2=O)CCC3)cc1 :: 8
2. COCCOc1cccc(Cl)c1Cn1c2c(c(O)c(NC(=O)N[C@@H](CC(=O)O)c3ccc(C)cc3)c1=O)CCC2 :: 6
3. Cc1cn(Cc2ccccc2Cl)c(=O)c(NC(=O)N[C@@H](CC(=O)O)c2ccccc2F)c1O :: 10
4. Cc1cc(C)cc([C@H](CC(=O)O)NC(=O)Nc2c(O)c3c(n(Cc4ccccc4Cl)c2=O)CCC3)c1 :: 9
5. CCn1c2ccccc2c2cc([C@H](CC(=O)O)NC(=O)Nc3c(O)c(C)cn(Cc4ccccc4Cl)c3=O)ccc21 :: 23
6. Cc1cccc(Cl)c1Cn1c2c(c(O)c(NC(=O)N[C@@H](CC(=O)O)c3ccc(Cl)c(OC(C)C)c3)c1=O)CCC2 :: 23
7. COc1ccccc1-c1ccc([C@H](CC(=O)O)NC(=O)Nc2c(O)c(C)cn(Cc3ccccc3Cl)c2=O)cc1 :: 25
8. CC1(C)Cc2cc([C@H](CC(=O)O)NC(=O)Nc3c(O)c4c(n(Cc5ccccc5Cl)c3=O)CCC4)ccc2O1 :: 3
9. CCOc1ccc(Cl)c(Cn2cc(C)c(O)c(NC(=O)N[C@@H](CC(=O)O)c3ccc(C)cc3)c2=O)c1 :: 4
10. Cc1cccc(-c2cccc([C@H](CC(=O)O)NC(=O)Nc3c(O)c(C)cn(Cc4ccccc4Cl)c3=O)c2)c1 :: 18
11. CCOc1cccc(Cl)c1Cn1cc(C)c(O)c(NC(=O)N[C@@H](CC(=O)O)c2ccc3ccn(C)c3c2)c1=O :: 3
12. CCn1ccc2cc([C@H](CC(=O)O)NC(=O)Nc3c(O)c4c(n(Cc5ccccc5Cl)c3=O)CCC4)ccc21 :: 5
13. CCOc1cccc(Cl)c1Cn1c2c(c(O)c(NC(=O)N[C@@H](CC(=O)O)c3cccc(OC4CC4)c3)c1=O)CCC2 :: 2
14. O=C(O)C[C@H](NC(=O)Nc1c(O)c2c(n(Cc3ccccc3Cl)c1=O)CCC2)c1cccc(C(F)F)c1 :: 4
15. O=C(O)C[C@H](NC(=O)Nc1c(O)c2c(n(Cc3ccccc3Cl)c1=O)CCC2)c1ccc(OC(F)(F)F)cc1 :: 13
16. CCN(CC)c1cccc([C@H](CC(=O)O)NC(=O)Nc2c(O)c3c(n(Cc4c(C)cccc4Cl)c2=O)CCC3)c1 :: 10
17. O=C(O)C[C@H](NC(=O)Nc1c(O)c2c(n(Cc3ccccc3Cl)c1=O)CCC2)c1cnc2ccccc2c1 :: 22
18. Cc1ccc([C@H](CC(=O)O)NC(=O)Nc2c(O)c(C)cn(Cc3c(Cl)cccc3N3CCCCC3)c2=O)cc1 :: 90
19. CCOc1cccc(Cl)c1Cn1c(C)c(C)c(O)c(NC(=O)N[C@@H](CC(=O)O)c2cccc(OC(C)C)c2)c1=O :: 3
20. O=C(O)C[C@H](NC(=O)Nc1c(O)c2c(n(Cc3ccccc3Cl)c1=O)CCC2)c1cccc(OC(F)F)c1 :: 5
21. Cc1cn(Cc2ccccc2Cl)c(=O)c(NC(=O)NC(CC(=O)O)c2cccc(N3CCCCC3)c2)c1O (centres unmarked) :: 22
22. CCC(CC)Oc1cccc([C@H](CC(=O)O)NC(=O)Nc2c(O)c3c(n(Cc4ccccc4Cl)c2=O)CCC3)c1 :: 20
23. Cc1cn(Cc2ccccc2Cl)c(=O)c(NC(=O)NC(CC(=O)O)c2ccc(C3CC3)cc2)c1O (centres unmarked) :: 35
24. CCOc1cccc(Cl)c1Cn1c(C)c(CC)c(O)c(NC(=O)N[C@@H](CC(=O)O)c2ccccc2)c1=O :: 4
25. O=C(O)C[C@H](NC(=O)Nc1c(O)c2c(n(Cc3ccccc3Cl)c1=O)CCC2)c1cccc(OCC2CC2)c1 :: 9
26. CCOc1cccc(Cl)c1Cn1cc(C)c(O)c(NC(=O)N[C@@H](CC(=O)O)c2ccc3c(ccn3C)c2)c1=O :: 3
27. Cc1cccc(Cl)c1Cn1c2c(c(O)c(NC(=O)N[C@@H](CC(=O)O)c3cccc(OC(C)C)c3)c1=O)CCC2 :: 10
28. CCCCOc1cccc([C@H](CC(=O)O)NC(=O)Nc2c(O)c(C)cn(Cc3c(Cl)cccc3OCC)c2=O)c1 :: 4
29. CCOc1cccc(Cl)c1Cn1c(C)c(C)c(O)c(NC(=O)N[C@@H](CC(=O)O)c2ccc(C)cc2)c1=O :: 4
30. CCOc1cc(OCC)cc([C@H](CC(=O)O)NC(=O)Nc2c(O)c3c(n(Cc4c(Cl)cccc4OCC)c2=O)CCC3)c1 :: 3
31. CCOc1cccc(Cl)c1Cn1cc(C)c(O)c(NC(=O)N[C@@H](CC(=O)O)c2ccc3cc(OC)ccc3c2)c1=O :: 3
32. CCCOc1cccc([C@H](CC(=O)O)NC(=O)Nc2c(O)c3c(n(Cc4c(Cl)cccc4OCC)c2=O)CCC3)c1 :: 3

// data source = patent US6972296B2
